Entries and their pIC50 values follow.
# tested on: USP25 (Homo sapiens (Human), UniProt Q9UHP3)
# Sequence (Q9UHP3 whole entry): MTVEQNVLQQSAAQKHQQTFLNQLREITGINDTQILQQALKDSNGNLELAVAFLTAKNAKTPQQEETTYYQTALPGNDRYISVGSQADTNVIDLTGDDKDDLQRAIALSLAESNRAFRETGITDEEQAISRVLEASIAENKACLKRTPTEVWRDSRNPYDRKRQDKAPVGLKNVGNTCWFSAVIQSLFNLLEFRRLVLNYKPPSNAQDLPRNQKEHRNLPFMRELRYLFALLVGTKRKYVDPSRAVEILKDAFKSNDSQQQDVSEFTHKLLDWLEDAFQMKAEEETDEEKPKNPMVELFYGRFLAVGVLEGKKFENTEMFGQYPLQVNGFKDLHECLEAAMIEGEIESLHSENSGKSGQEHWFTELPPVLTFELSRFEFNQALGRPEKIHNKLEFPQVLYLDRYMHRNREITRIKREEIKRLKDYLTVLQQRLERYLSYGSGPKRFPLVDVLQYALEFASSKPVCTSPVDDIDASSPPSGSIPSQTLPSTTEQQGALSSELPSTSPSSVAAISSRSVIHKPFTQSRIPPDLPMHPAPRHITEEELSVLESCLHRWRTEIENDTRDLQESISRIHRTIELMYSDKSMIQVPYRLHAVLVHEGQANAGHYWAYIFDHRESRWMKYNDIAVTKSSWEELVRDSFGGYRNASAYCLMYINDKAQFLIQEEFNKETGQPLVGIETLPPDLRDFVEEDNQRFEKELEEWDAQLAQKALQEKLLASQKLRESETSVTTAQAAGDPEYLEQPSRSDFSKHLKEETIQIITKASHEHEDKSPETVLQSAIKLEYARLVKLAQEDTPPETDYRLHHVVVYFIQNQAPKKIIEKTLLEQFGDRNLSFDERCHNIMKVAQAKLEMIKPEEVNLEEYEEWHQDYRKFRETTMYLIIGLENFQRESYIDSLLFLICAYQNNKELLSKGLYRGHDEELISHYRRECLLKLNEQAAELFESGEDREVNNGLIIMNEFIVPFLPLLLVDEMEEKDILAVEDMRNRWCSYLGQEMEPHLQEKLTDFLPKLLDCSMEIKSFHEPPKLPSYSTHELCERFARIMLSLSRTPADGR
pIC50: −log10 of the molar value.

Please review the following examples before continuing.
smiles representation	pIC50
Cc1ccc2c(N)c(C(=O)NCCc3ccc(N4CCNCC4)cc3)sc2n1	5.70 to 6.70
Cc1ccc2c(N)c(C(=O)NCCc3ccc(N4CC5CCC(C4)N5)c(Cl)c3)sc2n1	5.70 to 6.70
Cc1ccc2c(N)c(C(=O)NCCc3ccc(N4CCNCC4)c(-c4ccccc4)c3)sc2n1	5.00 to 5.70
Cc1ccc2c(N)c(C(=O)NC[C@@H](C)c3ccc(N4CCNCC4)cc3)sc2n1	5.00 to 5.70

**Query** Lab note: need pIC50 with USP25 (Homo sapiens (Human), UniProt Q9UHP3) for entry `Cc1ccc2c(N)c(C(=O)NCCc3ccc4c(c3)C[C@H](C(=O)O)C4)sc2n1` , please look it up.
**Result** 5.70 to 6.70

**Query** Value wanted: pIC50 (USP25 (Homo sapiens (Human), UniProt Q9UHP3)) of entry `COc1cc(C)nc2sc(C(=O)NCCc3ccc(N4CCNCC4)cc3)c(N)c12`
**Result** 4.60 to 5.00

**Query** Item: `Cc1ccc2c(N)c(C(=O)NCCc3cccc(C(=O)O)c3)sc2n1` Test system: USP25 (Homo sapiens (Human), UniProt Q9UHP3) Read-out: pIC50 Value: ?
**Result** 5.00 to 5.70

**Query** So what pIC50 did `Cc1ccc2c(N)c(C(=O)NCCc3cc(F)c(NC4CNC4)cc3F)sc2n1` get with USP25 (Homo sapiens (Human), UniProt Q9UHP3)?
**Result** 5.70 to 6.70

**Query** Any idea what pIC50 came out for `Cc1cc2c(N)c(C(=O)NCCc3ccc(N4CCNCC4)cc3)sc2nc1C` on USP25 (Homo sapiens (Human), UniProt Q9UHP3)?
**Result** 5.00 to 5.70

* * *

# tested on: USP25 (Homo sapiens (Human), UniProt Q9UHP3)
pIC50: −log10 of the molar value.
Catalogue of pIC50 readings, one per entry.

Examples with their reported pIC50 follow.
compound	pIC50
Cc1ccc2c(N)c(C(=O)NCCc3ccc(N4CC5CCC(C4)N5)c(C#N)c3)sc2n1	5.70 to 6.70
CCc1nc2sc(C(=O)NCCc3ccc(N4CCNCC4)cc3)c(N)c2cc1F	> 6.70
Cc1nc2sc(C(=O)NC[C@@H](C)c3cc(F)c(N4CC5CCC(C4)N5)cc3F)c(N)c2cc1F (single isomer, unassigned)	5.70 to 6.70
Cc1ccc2c(N)c(C(=O)NCCc3ccc(N4CCNCC4)c(O)c3)sc2n1	5.00 to 5.70
Nc1c(C(=O)NCCc2ccc(N3CCNCC3)cc2)sc2ncc3c(c12)CCC3	5.00 to 5.70
Cc1ccc2c(N)c(C(=O)NCCc3cc(F)c(N4CC5CCC(C4)N5)cc3F)sc2n1	5.70 to 6.70

**Query** pIC50 lookup needed for `CCc1ccc2c(N)c(C(=O)NCCc3cc(F)c(N4CCNCC4)cc3F)sc2n1` , thanks.
**Result** > 6.70

**Query** Look at this compound and give its reported pIC50. `Cc1ccc2c(N)c(C(=O)NCCc3ccc4c(c3)C[C@@H](C(=O)O)C4)sc2n1`
**Result** 5.70 to 6.70

**Query** Reported pIC50, compound `N#Cc1ccc2c(N)c(C(=O)NCCc3cc(F)c(N4CCNCC4)cc3F)sc2n1` : ____
**Result** 5.00 to 5.70

**Query** Quick check: pIC50 of `Nc1c(C(=O)NCCc2ccc(N3CCNCC3)cc2)sc2nc3c(cc12)CCCC3` ?
**Result** 4.60 to 5.00

**Query** What does the record list as pIC50 for Cc1ccc2c(N)c(C(=O)NC[C@H](C)c3ccc(N4CC5CCC(C4)N5)cc3F)sc2n1 (single isomer, unassigned) ?
**Result** 5.70 to 6.70

**Query** Requested read-out: pIC50. Entry: `Nc1c(C(=O)NCCc2ccc(N3CCNCC3)c(Cl)c2)sc2nc(C(F)F)ccc12`
**Result** 5.00 to 5.70

**Query** For `Cc1cc(N)nc2sc(C(=O)NCCc3ccc(N4CCNCC4)c(Cl)c3)c(N)c12` , what is its reported pIC50?
**Result** 5.00 to 5.70

**Query** Field request: pIC50 | item: Cc1ccc2c(N)c(C(=O)NC[C@@H](C)c3ccc(N4CC5CCC(C4)N5)cc3F)sc2n1 (single isomer, unassigned)
**Result** 5.70 to 6.70

**Query** Using the record for `Cc1ccc2c(N)c(C(=O)NCCc3ccc(N4CC[C@@H](NC(C)C)C4)cc3)sc2n1` , report its pIC50.
**Result** 5.70 to 6.70

* * *

pIC50: −log10 of the molar value.
// values below are pIC50; system is USP25 (Homo sapiens (Human), UniProt Q9UHP3)

Worked cases, pIC50 given:
compound	tested on	recorded metric	result
Cc1ccc2c(N)c(C(=O)NCCc3ccc(N4CCNCC4)cc3Cl)sc2n1 [Example I-76]	USP25 (Homo sapiens (Human), UniProt Q9UHP3)	pIC50	5.70 to 6.70
C[C@@H](O)c1ccc2c(N)c(C(=O)NCCc3ccc(N4CCNCC4)cc3)sc2n1 (single isomer, unassigned) [Example I-222]	USP25 (Homo sapiens (Human), UniProt Q9UHP3)	pIC50	5.70 to 6.70
Cc1ccc2c(N)c(C(=O)NCCc3ccc(N4CC5CC(C4)N5)cc3)sc2n1 [Compound I-65]	USP25 (Homo sapiens (Human), UniProt Q9UHP3)	pIC50	> 6.70
Cc1ccc2c(N)c(C(=O)NCCc3ccc(N4CCNCC4)c(Cl)c3)sc2n1 [Example I-77]	USP25 (Homo sapiens (Human), UniProt Q9UHP3)	pIC50	5.70 to 6.70
CNC1CN(c2cc(F)c(CCNC(=O)c3sc4nc(C)ccc4c3N)cc2F)C1 [Example I-199]	USP25 (Homo sapiens (Human), UniProt Q9UHP3)	pIC50	5.70 to 6.70

**Query** Record lookup: for USP25 (Homo sapiens (Human), UniProt Q9UHP3), what pIC50 belongs to CCc1cc(CCNC(=O)c2sc3nc(C)ccc3c2N)ccc1N1CC2CCC(C1)N2 [Compound I-44] ?
**Result** > 6.70

**Query** So what pIC50 did Cc1ccc2c(N)c(C(=O)NCCc3cc(F)c(N4C[C@H]5C[C@@H]4CN5)cc3F)sc2n1 [Compound I-53] get with USP25 (Homo sapiens (Human), UniProt Q9UHP3)?
**Result** > 6.70

**Query** Give the reported pIC50 for Cc1ccc2c(N)c(C(=O)NCCc3ccc(N4CCN[C@@H](C)C4)cc3)sc2n1 [Example I-121] (system: USP25 (Homo sapiens (Human), UniProt Q9UHP3)).
**Result** 5.70 to 6.70

**Query** pIC50 of Cc1nc2sc(C(=O)NCCc3ccc(N4CC5CCC(C4)N5)c(C#N)c3)c(N)c2cc1F [Compound I-71] on USP25 (Homo sapiens (Human), UniProt Q9UHP3)?
**Result** 5.70 to 6.70

* * *

Consider the following IC50 values measured on USP28 (Homo sapiens (Human), UniProt Q96RU2).
Sequence (Q96RU2 whole entry): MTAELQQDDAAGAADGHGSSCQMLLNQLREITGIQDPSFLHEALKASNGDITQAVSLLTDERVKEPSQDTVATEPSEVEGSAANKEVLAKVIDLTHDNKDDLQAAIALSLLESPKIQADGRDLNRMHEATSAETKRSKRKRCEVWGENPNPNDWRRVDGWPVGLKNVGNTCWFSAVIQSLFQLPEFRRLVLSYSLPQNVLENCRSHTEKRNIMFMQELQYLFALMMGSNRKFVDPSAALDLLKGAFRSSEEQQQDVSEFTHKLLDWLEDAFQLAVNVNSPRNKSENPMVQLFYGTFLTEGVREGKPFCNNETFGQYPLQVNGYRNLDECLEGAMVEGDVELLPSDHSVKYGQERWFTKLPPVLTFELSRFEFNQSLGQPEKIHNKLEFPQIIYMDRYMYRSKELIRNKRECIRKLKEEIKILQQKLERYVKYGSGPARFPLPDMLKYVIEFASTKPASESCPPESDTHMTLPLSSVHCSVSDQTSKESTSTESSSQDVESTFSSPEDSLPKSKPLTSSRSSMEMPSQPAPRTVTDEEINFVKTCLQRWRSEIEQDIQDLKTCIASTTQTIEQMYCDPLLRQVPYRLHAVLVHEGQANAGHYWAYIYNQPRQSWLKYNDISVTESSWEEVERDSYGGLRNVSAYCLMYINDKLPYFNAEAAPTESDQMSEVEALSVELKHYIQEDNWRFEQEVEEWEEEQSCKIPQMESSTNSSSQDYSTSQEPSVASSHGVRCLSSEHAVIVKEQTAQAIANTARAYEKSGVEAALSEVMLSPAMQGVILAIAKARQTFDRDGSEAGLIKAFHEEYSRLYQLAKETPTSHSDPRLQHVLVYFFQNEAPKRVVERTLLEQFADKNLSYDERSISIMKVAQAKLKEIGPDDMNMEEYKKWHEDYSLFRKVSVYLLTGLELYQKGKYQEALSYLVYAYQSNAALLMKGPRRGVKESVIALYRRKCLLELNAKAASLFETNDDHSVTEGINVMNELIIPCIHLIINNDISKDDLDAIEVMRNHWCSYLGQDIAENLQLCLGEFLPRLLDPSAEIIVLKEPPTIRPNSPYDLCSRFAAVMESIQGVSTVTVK

Consider the reported IC50 for these molecules:
molecule	IC50
CN[C@@H]1CCN(c2ccc(CCNC(=O)c3sc4nc(C)ccc4c3N)cc2Cl)C1	200 to 2000 nM
Cc1ccc2c(N)c(C(=O)NC[C@H](C)c3ccc(N4CC5CCC(C4)N5)cc3F)sc2n1 (single isomer, unassigned)	200 to 2000 nM

**Query** Record `Cc1ccc2c(N)c(C(=O)NCCc3ccc(N4CC5CCC(C4)N5)cc3Cl)sc2n1` : what is its IC50 with USP28 (Homo sapiens (Human), UniProt Q96RU2)?
**Result** < 200 nM

**Query** Please tell me: IC50 of `Cc1ccc2c(N)c(C(=O)NCCc3ccc(N4CC5CNCC(C4)O5)cc3)sc2n1` , system USP28 (Homo sapiens (Human), UniProt Q96RU2)?
**Result** < 200 nM

* * *

Please consider the recorded IC50 for USP28 (Homo sapiens (Human), UniProt Q96RU2) in what follows.

# count of solved cases: 4
compound	IC50
Cc1ccc2c(N)c(C(=O)NCCc3cc(F)c(NC4CNC4)cc3F)sc2n1	< 200 nM
Cc1ccc2c(N)c(C(=O)NCCc3cc(F)c(N4CC5CCC(C4)N5)cc3F)sc2n1	< 200 nM
Cc1ccc2c(N)c(C(=O)NCCc3ccc(-c4cnn5c4CNCC5)cc3)sc2n1	< 200 nM
Cc1ccc2c(N)c(C(=O)NC[C@H](C)c3ccc(N4CC5CCC(C4)N5)c(F)c3)sc2n1 (single isomer, unassigned)	200 to 2000 nM

**Query** Any idea what IC50 was measured for `Nc1c(C(=O)NCCc2ccc(N3CCNCC3)cc2)sc2nc(OC(F)F)ccc12` ?
**Result** < 200 nM

**Query** IC50 for `COCCN1CCN(c2ccc(CCNC(=O)c3sc4nc(C)ccc4c3N)cc2)CC1` ?
**Result** 200 to 2000 nM
